- test target: LIGHT without residues 81-84, stably expressed on EL4 cells (EL4-NC-LIGHT)
- assay overview: cell-based or functional assay
measure: IC50, inhibition of IL-8 secretion, HT-29 + EL4-NC-LIGHT cells (nM)
Could you give me the number in nM? Just the number is fine.

3D12_var14 (antibody, V domains shown) VH: QVQLVQSGAEVKKPGASVKVSCKASDYTFTDSEIHWVRQAPGQGLEWIGEIDPETGGTAYNQKFQGRVTLTADKSTSTAYMELSSLRSEDTAVYYCSRETDYFFDYWGQGTLVTVSS VL: DIQMTQSPSSLSASVGDRVTITCRASENIYGALNWYQQKPGKAPKLLIYGATNLAEGVPSRFSGSGSGRDYTLTISSLQPEDVATYYCQNVLSTPWTFGQGTKLEIKR    0.45
3D12_var16 (antibody, V domains shown) VH: QVQLVQSGAEVKKPGASVKVSCKASGYTFTDSEMHWVRQAPGQGLEWMGEIDPETGGTAYAQKFQGRVTLTADKSTSTAYMELSSLRSEDTAVYYCSRETDYFFDYWGQGTLVTVSS VL: DIQMTQSPSSLSASVGDRVTITCRASENIYGALNWYQQKPGKAPKLLIYGATNLAEGVPSRFSGSGSGRDYTLTISSLQPEDVATYYCQNVLSTPWTFGQGTKLEIKR    0.52
3B04_var16 (antibody, V domains shown) VH: QVQLVQSGAEVKKPGASVKVSCKASGYTFTDYEMHWVRQAPGQGLEWMGEIDPETGDTAYAQKFQGRVTLTADKSTSTAYMELSSLRSEDTAVYYCSRETDYFFDYWGQGTLVTVSS VL: DIQMTQSPSSLSASVGDRVTITCRASENIYGALNWYQQKPGKAPKLLIYGATNLAEGVPSRFSGSGSGRDYTLTISSLQPEDFATYYCQNVLTTPWTFGQGTKLEIKR    0.1

# ---- query binder ----
Exercise: Please give measured IC50, inhibition of IL-8 secretion, HT-29 + EL4-NC-LIGHT cells of the following entry: 3D12_var13 (antibody, V domains shown) VH: QVQLVQSGAEVKKPGASVKVSCKASDYTFTDSEIHWVRQAPGQGLEWIGEIDPETGGTAYNQKFKGRATLTADKSTSTAYMELSSLRSEDTAVYYCSRETDYFFDYWGQGTLVTVSS VL: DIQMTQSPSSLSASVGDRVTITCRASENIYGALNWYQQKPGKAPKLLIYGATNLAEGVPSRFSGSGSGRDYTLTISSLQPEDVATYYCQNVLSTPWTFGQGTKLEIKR
Key: 0.45
